# ASSAY_TARGET: T1, hu-sCD47-6His; extracellular domain of human CD47 antigen with 6His-tag (human)
# T1 construct: also called hCD47-his; soluble hCD47
# ASSAY_COMMENT: SPR Biacore;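 also: antibodies captured on anti-IgG CM5 chip, soluble His-tagged human CD47 flowed over at rising concentrations, five 10 min injections, flow cell 1 as reference, 1:1 model fit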
Entries annotated with measured pKd
Recall that pKd is obtained by taking minus log10 of the concentration measured in molar.

Take a look at these entries with their results.
>>> reading("h20-VH3-VL3 (candidate 20.13) (antibody, human IgG4 S228P, kappa, V domains shown, hIgG4-S228P/kappa; also called h20-H3-L3) VH: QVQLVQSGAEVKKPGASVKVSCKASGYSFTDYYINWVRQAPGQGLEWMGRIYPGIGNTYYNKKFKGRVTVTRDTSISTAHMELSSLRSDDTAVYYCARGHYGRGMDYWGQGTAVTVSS VL: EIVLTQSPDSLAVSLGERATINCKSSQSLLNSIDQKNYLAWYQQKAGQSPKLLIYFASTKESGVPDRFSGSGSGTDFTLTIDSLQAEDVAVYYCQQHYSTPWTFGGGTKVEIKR")
8.52
>>> reading("h20-VH4-VL5 (candidate 20.20) (antibody, human IgG4 S228P, kappa, V domains shown, hIgG4-S228P/kappa; also called h20-H4-L5) VH: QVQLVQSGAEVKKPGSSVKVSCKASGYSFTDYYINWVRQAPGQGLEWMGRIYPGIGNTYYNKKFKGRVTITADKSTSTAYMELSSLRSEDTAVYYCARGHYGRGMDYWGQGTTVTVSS VL: DIVMTQSPDSLAVSLGERATINCKSSQSLLNSIDQKNYLAWYQQKPGQPPKLLIYFASTKESGVPDRFSGSGSGTDFTLTISGLQAEDVAVYFCQQHYSTPWTFGGGTKVEIRR")
8.46
>>> reading("h20-VH2-VL3 (candidate 20.8) (antibody, human IgG4 S228P, kappa, V domains shown, hIgG4-S228P/kappa; also called h20-H2-L3) VH: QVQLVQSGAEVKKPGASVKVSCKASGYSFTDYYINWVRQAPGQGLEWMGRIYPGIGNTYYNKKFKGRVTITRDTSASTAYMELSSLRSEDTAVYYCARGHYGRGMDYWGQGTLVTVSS VL: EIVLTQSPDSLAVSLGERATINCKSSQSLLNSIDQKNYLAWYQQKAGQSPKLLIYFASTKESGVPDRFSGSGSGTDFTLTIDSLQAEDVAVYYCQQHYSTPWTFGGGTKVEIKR")
8.44
>>> reading("h20-VH1-VL3 (candidate 20.3) (antibody, human IgG4 S228P, kappa, V domains shown, hIgG4-S228P/kappa; also called h20-H1-L3) VH: QVQLLESGAVLARPGTSVKISCKASGYSFTDYYINWVKQRPGQGLEWIGRIYPGIGNTYYNKKFKGRAKLTAATSASIAYLEFSSLTNEDSAVYYCARGHYGRGMDYWGQGTLVTVSS VL: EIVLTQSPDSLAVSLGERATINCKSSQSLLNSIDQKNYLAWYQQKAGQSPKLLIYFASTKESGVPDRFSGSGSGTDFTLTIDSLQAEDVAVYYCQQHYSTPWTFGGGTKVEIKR")
8.13
>>> reading("h20-VH5-VL4 (candidate 20.24) (antibody, human IgG4 S228P, kappa, V domains shown, hIgG4-S228P/kappa; also called h20-H5-L4) VH: QVQLVQSGAEVKKPGASVKVSCKASGYSFTDYYINWVRQAPGQGLEWMGRIYPGIGNTYYNKKFKGRVTMTRYTSISTAYMELSRLRSDDTAVYFCARGHYGRGMDYWGQGTTVTVSS VL: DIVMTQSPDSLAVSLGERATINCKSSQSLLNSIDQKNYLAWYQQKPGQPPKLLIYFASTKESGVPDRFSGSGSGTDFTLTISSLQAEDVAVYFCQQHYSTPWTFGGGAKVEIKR")
7.96

Please find the next binder below.
# pKd lookup, item h20-VH5-VL3 (candidate 20.23) (antibody, human IgG4 S228P, kappa, V domains shown, hIgG4-S228P/kappa; also called h20-H5-L3) VH: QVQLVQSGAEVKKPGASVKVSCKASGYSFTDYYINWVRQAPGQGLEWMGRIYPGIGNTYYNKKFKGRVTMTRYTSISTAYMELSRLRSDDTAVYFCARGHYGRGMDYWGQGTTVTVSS VL: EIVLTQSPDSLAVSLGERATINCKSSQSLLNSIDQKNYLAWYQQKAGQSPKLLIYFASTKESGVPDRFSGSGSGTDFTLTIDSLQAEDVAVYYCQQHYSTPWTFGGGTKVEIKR
8.00
